# z-score per entry
Test details: PSAC antagonists in infected red cells, primary screen, cell-based, P. falciparum Indochina, OD700, 1 h (AID 1154)
Assay setup: P. falciparum Indochina infected RBC osmotic lysis, higher = more signal, called active from +8 up or from −8 down
Response field accepts a number only; no unit should be typed.

Compound | z-score
COc1ccc([C@H]2OC[C@@H]3CC4(CC=CC4)C(=O)N32)cc1 | 0.486

Q: Requested field: z-score. Item: `C=CCN1C(=O)[C@]2(O[C@H](CCO)[C@@H]([Si](C)(C)c3ccc(OC)cc3)[C@@H]2C)c2cc(N3CCCCC3=O)ccc21`
A: 4.68

Q: Requested field: z-score. Item: `C=CCN1C(=O)[C@@]2(O[C@@H](CCO)[C@H]([Si](C)(C)c3ccc(OC)cc3)[C@H]2C)c2cc(NC(=O)c3ccc(OC)cc3)ccc21`
A: 23.3

Q: Requested field: z-score. Item: O=C1NC(=O)C2C1C=CC(C(O)Cc1ccccc1)N2Nc1ccc(Cl)cc1Cl (stereo unspecified)
A: 4.35

Q: Requested field: z-score. Item: CN1C(=O)C2C=CC(C(O)C3CC=CCC3)N(NC(=O)OC(C)(C)C)C2C1=O (stereo unspecified)
A: 0.23

Q: Requested field: z-score. Item: `CC(C)(C)OC(=O)CC[C@]12N=C(c3ccc(OCCCO)cc3)O[C@H]1c1ccccc1N(CCS(=O)(=O)c1ccccc1)C2=O`
A: 32.2

Q: Requested field: z-score. Item: `COc1ccc(C(=O)Nc2ccc(CN3C(=O)[C@@]4(O[C@@H](CCO)[C@H]([Si](C)(C)c5ccc(OC)cc5)[C@H]4C)c4ccccc43)cc2)cc1`
A: 25.1

Q: Requested field: z-score. Item: `Cc1ccc(S[C@]2(C(=O)NCC(C)C)CC(=O)N(Cc3cc(C(F)(F)F)cc(C(F)(F)F)c3)[C@@H]2c2ccc(CO)cc2I)cc1`
A: 2.53

Q: Requested field: z-score. Item: N#Cc1ccc(NN2C(C(O)c3c(F)cccc3Cl)C=CC3C(=O)N(c4ccccc4)C(=O)C32)cc1 (stereo unspecified)
A: 22

Q: Requested field: z-score. Item: `COc1ccc(CCN2C(=O)[C@@]3(Cc4ccccc42)c2ccccc2C(=O)N(Cc2ccccc2C(F)(F)F)[C@H]3c2ccc(CO)cc2)cc1`
A: 0.074

Q: Requested field: z-score. Item: `Cc1ccc(S[C@]2(C(=O)NCC(F)(F)F)CC(=O)N(C(C)C)[C@@H]2c2ccc(CO)cc2I)cc1`
A: 4.6

Q: Requested field: z-score. Item: CCC(CC)C(O)C1C=CC2C(=O)N(C)C(=O)C2N1Nc1ccccc1 (stereo unspecified)
A: 1.11

Q: Requested field: z-score. Item: CN1C(=O)C2C=CC(C(O)c3ccc(I)cc3)N(N3CCCCC3)C2C1=O (stereo unspecified)
A: 4.08

Q: Requested field: z-score. Item: CN1C(=O)C2C=CC(C(O)c3cc(C(F)(F)F)cc(C(F)(F)F)c3)N(N3CCCCC3)C2C1=O (stereo unspecified)
A: 1.2

Q: Requested field: z-score. Item: `CC(C)[C@@H](CO)NC(=O)[C@H]1[C@@H](c2ccccc2)N(c2ccccc2)O[C@@H]1C`
A: 0.785

Q: Requested field: z-score. Item: CC(CO)N1C(=O)[C@@H]2C3C(=O)OCCC/C=C\[C@H]3OC23C=CCN(c2ccc4ccccc4c2)C(=O)[C@@H]13 (stereo partly specified)
A: 1.07

----------
Assayed system: Follistatin-related protein 3 (Homo sapiens) (UniProt O95633)
Sequence (O95633 whole entry, looked up): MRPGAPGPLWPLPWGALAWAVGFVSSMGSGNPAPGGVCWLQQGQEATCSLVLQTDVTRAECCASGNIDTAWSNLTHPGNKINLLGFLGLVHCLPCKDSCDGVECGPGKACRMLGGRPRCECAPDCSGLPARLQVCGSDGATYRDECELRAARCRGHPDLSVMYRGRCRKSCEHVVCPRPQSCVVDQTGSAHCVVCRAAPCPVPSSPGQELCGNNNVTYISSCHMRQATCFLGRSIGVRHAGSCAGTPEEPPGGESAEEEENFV
Test details: FSTL3 binders on small-molecule microarrays, primary screen, biochemical, small-molecule microarray, 635 nm fluorescence (AID 1105);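 note: score merges emission near 667 nm and signal to noise per printed spot across three slides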
Assay setup: FSTL3 binding, higher = more signal
Outcome: Yes for composite z-score of at least 0.09; No for anything lower.

Consider the worked cases shown below.
Compound | Assayed system | Assigned class
Cc1ccc(S[C@]2(C(=O)NCC(C)C)CC(=O)N(Cc3cc(C(F)(F)F)cc(C(F)(F)F)c3)[C@@H]2c2ccc(CO)cc2I)cc1 | Follistatin-related protein 3 (Homo sapiens) (UniProt O95633) | No
COc1ccc(C(=O)Nc2cccc(CN3C(=O)[C@]4(O[C@H](CCO)[C@@H]([Si](C)(C)c5ccc(OC)cc5)[C@@H]4C)c4ccccc43)c2)cc1 | Follistatin-related protein 3 (Homo sapiens) (UniProt O95633) | Yes
CN(C)CCCNC(=O)[C@@]1(C)c2ccccc2C(=O)N(Cc2cc(F)cc(C(F)(F)F)c2)[C@H]1c1ccc(CO)cc1 | Follistatin-related protein 3 (Homo sapiens) (UniProt O95633) | No
O=C1c2ccccc2[C@](Cc2ccccc2I)(C(=O)NC2CC2)[C@H](c2ccc(CO)cc2)N1C1CCCCC1 | Follistatin-related protein 3 (Homo sapiens) (UniProt O95633) | Yes
CC(C)(C)OC(=O)CC[C@@]12N=C(c3ccc(OCCCO)cc3)O[C@@H]1c1ccccc1N(CCS(=O)(=O)c1ccccc1)C2=O | Follistatin-related protein 3 (Homo sapiens) (UniProt O95633) | Yes

Q: Please indicate if the recorded composite z-score for COc1cc(OC)c(C(O)C2C=CC3C(=O)NC(=O)C3N2Nc2ccc(Cl)cc2Cl)cc1Br (stereo not drawn) meets or exceeds 0.09.
A: Yes

Q: Please indicate if the recorded composite z-score for `COC(=O)[C@@]1(Cc2ccccc2)[C@H]2c3cc(C(=O)N(C)C)n(CCSCCO)c3C[C@H]2CN1C(=O)c1ccccc1` meets or exceeds 0.09.
A: No

----------
Test details: fission yeast growth modulation, primary screen, strain 972, OD600, 24 h, no modulator (AID 1090);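 note: basal condition with compound alone and no growth modifier present; test concentration not given here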
Assay setup: S. pombe 972 growth, higher = more signal, called active from +8 up or from −8 down
Activity calls are given as the source filed them.
# z-score per entry

Q: Requested field: z-score. Item: `CN(C)C(=O)[C@@]1(Cc2ccccc2CN=[N+]=[N-])N=C(c2ccc(OCCCO)cc2)O[C@H]1c1ccccc1`
A: 0.0586 (inactive)

Q: Requested field: z-score. Item: `COC(=O)[C@@]1(Cc2ccccc2)[C@H]2c3cc(C(=O)N4CCCC4)n(Cc4cccc5ccccc45)c3C[C@H]2CN1C(=O)c1ccccc1`
A: 1.56 (inactive)

Q: Requested field: z-score. Item: O=C1NC(=O)C2C1C=CC(C(O)c1ccccc1)N2Nc1ccc(Cl)cc1Cl (stereo not drawn)
A: -4.35 (inactive)

----------
Assayed system: E3 ubiquitin-protein ligase XIAP (Homo sapiens)
Test details: XIAP binders, primary screen, biophysical, small-molecule microarray, fluorescence 635 nm (AID 1181);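 note: score merges 667 nm emission and signal to noise over triplicate slides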
Assay setup: small-molecule microarray binding, higher = more signal
Classes are defined on composite z-score with ranges low group: < -0.1; middle group: ≥ -0.1 and < 0.1; high group: ≥ 0.1

Consider the worked cases shown below.
Compound | Assigned class
C=CCOC(=O)[C@@H]1[C@H]2C(=O)O[C@H](c3ccccc3)[C@H](c3ccccc3)N2[C@H](c2ccc(OCCOC(=O)[C@@H]3C[C@@H]4C(=O)N[C@@H](CCCC[N+](C)(C)C)C(=O)N4[C@@H]3c3cccc(OCCO)c3)cc2)[C@@]12C(=O)Nc1ccc(I)cc12 | low group
CCOC(=O)[C@H]1C/C=C/C[C@H](C(=O)OCC)C(=O)O[C@H]2[C@@H](OC)O[C@H](CO)[C@@H](OC(=O)Nc3ccc(C#N)cc3)[C@@H]2OC1=O | high group
[N-]=[N+]=NCc1ccccc1C[C@]1(C(=O)NCC(O)CO)N=C(c2ccc(OCCCO)cc2)O[C@H]1c1ccccc1 (some centres not stated) | middle group
CC(C)c1ccc(NN2C(C(O)C(c3ccccc3)c3ccccc3)C=CC3C(=O)N(c4ccccc4)C(=O)C32)cc1 (configuration not stated) | middle group
NCCCCCNC(=O)[C@@H]1C[C@@H]2C(=O)N[C@@H](Cc3ccccc3)C(=O)N2[C@@H]1c1cccc(OCCO)c1 | high group

Q: Bin this entry: `O=C1O[C@H](c2ccccc2)[C@H](c2ccccc2)N2[C@H]1[C@@H](C(=O)N1CCN(c3ncccn3)CC1)[C@]1(C(=O)Nc3ccc(C#CC4=CCCCC4)cc31)[C@H]2c1ccc(O)cc1`
A: middle group

Q: Bin this entry: `COCCn1c(C(=O)N2CCCC2)cc2c1C[C@H]1CN(C(=O)c3ccccc3)[C@@](Cc3ccc(F)cc3)(C(=O)OC)[C@@H]21`
A: middle group

Q: Bin this entry: `C=C(COC)/C(=C/C[C@@H](OC(C)=O)c1ccc(OCCO)cc1)c1cc(C(=O)OC)ccc1OC`
A: low group

Q: Bin this entry: `COC(=O)[C@@]1(Cc2ccccc2)[C@H]2c3cc(C(=O)N4CCCC4)n(Cc4cccc5ccccc45)c3C[C@H]2CN1C(=O)c1ccccc1`
A: middle group

Q: Bin this entry: `CCCN1C(=O)[C@]2(CCS(=O)(=O)c3ccccc3)N=C(c3ccc(OCCCO)cc3)O[C@@H]2c2ccccc21`
A: middle group

Q: Bin this entry: `CCCC[C@@H]1C[C@H]1[C@@H](NC(=O)c1ccco1)c1ccc(C(=O)OC)cc1`
A: high group

Q: Bin this entry: CCCCC(O)C1C=CC2C(=O)N(c3ccccc3)C(=O)C2N1Nc1ccccc1F (configuration not stated)
A: high group

Q: Bin this entry: `CC(C)(C)OC(=O)CC[C@@]1(C(N)=O)N=C(c2ccc(OCCCO)cc2)O[C@@H]1c1ccccc1`
A: low group
